Where do these numbers come from? They come from patent US20190284262A1.

- Tested On: T1, HLA-A*02:01 on T2 cells alone (no peptide added) (human)
- T1 construct: TAP-deficient T2 cells without pulsed peptide; negative control target, and the HLA molecule whose stabilisation by peptides is read in the T2 stabilization assay; also called HLA-A*02 molecule; HLA-A2 molecule
- Test Description: flow cytometry, phage on T2 without peptide; secondary only 121, unstained 106
Kindly state Median:FITC-A for each of the entries shown.

Lab note: EXT017-26 scFv phage clone (scFv, also called phage clone #26) scFv: SYVLTQPPSVSVAPGQTARITCGGTDIRRKTVHWYQQKPGLAPVLVLYDDSDRPSGIPERFSGSNSGNTATLTISRVEGGDEADYYCQVWDNDNDHYVFGPGTKVTVLGSRGGGGSGGGGSGGGGSLEMAEVQLVQSGAEVKKPGASVKVSCKASGYTFTNYYIHWVRQTPGEGLEWMGIIRPSGGNTNYAQKFQGRVTMTRDTSTRTVYMELSSLRSEDTAVYYCARSWDTFSDEWGQGTLVTVSSTSGQAGQHHHHHHGAYPYDVPDYAS gave Median:FITC-A of 146

Lab note: EXT017-32 scFv phage clone (scFv, also called EXT017-32 phage; phage clone #32) scFv: QSVLTQPPSVSVAPGKTARITCGGNNIGSKSVHWYQQKPGQAPVLVIYYDSDRPSGIPERFSGSNSGNTATLTISRVEAGDEADYYCQVWDSSSDHYVFGTGTKVTVLGSRGGGGSGGGGSGGGGSLEMAEVQLVESGGGVVQPGRSLRLSCAASGFTFNNHAMHWVRQAPGKGLEWVAVISFDGDDKFYADSVKGRFTISRDNSRNTLFLQMNNLRPEDTAVYYCSRDPYHFASGSYSYFDYWGQGTLVTVSSTSGQAGQHHHHHHGAYPYDVPDYAS gave Median:FITC-A of 138
